- Assayed system: human MrgprX1 (hMrgprX1) (Homo sapiens, UniProt Q96LB2)
- Sequence (Q96LB2 whole entry, looked up): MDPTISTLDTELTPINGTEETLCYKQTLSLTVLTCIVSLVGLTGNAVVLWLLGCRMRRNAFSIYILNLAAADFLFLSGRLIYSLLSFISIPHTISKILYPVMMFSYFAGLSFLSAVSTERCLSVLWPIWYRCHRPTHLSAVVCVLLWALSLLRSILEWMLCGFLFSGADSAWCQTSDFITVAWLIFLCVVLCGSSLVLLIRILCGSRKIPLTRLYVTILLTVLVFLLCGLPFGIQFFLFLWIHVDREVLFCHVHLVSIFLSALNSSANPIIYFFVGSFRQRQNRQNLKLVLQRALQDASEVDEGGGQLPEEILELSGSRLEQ
- Experimental details: cell-based
- Type: cell-based
No end group written: not given here.
Measured quantity: EC50 (nM)
Output spec: scalar in nM, unitless text.

Notebook: HSGFLLAWSGPRNRFVRF-NH2 [CNF-Vc1] , EC50 read as 1800
